target: SMARCA2 (Homo sapiens, UniProt P51531); construct: endogenous in cells; test: SMARCA2 Cellular Degradation Assay (Western blot analysis on Jess platform); format: cell-based; conditions: cellular degradation
Sequence (P51531 whole entry, species assumed): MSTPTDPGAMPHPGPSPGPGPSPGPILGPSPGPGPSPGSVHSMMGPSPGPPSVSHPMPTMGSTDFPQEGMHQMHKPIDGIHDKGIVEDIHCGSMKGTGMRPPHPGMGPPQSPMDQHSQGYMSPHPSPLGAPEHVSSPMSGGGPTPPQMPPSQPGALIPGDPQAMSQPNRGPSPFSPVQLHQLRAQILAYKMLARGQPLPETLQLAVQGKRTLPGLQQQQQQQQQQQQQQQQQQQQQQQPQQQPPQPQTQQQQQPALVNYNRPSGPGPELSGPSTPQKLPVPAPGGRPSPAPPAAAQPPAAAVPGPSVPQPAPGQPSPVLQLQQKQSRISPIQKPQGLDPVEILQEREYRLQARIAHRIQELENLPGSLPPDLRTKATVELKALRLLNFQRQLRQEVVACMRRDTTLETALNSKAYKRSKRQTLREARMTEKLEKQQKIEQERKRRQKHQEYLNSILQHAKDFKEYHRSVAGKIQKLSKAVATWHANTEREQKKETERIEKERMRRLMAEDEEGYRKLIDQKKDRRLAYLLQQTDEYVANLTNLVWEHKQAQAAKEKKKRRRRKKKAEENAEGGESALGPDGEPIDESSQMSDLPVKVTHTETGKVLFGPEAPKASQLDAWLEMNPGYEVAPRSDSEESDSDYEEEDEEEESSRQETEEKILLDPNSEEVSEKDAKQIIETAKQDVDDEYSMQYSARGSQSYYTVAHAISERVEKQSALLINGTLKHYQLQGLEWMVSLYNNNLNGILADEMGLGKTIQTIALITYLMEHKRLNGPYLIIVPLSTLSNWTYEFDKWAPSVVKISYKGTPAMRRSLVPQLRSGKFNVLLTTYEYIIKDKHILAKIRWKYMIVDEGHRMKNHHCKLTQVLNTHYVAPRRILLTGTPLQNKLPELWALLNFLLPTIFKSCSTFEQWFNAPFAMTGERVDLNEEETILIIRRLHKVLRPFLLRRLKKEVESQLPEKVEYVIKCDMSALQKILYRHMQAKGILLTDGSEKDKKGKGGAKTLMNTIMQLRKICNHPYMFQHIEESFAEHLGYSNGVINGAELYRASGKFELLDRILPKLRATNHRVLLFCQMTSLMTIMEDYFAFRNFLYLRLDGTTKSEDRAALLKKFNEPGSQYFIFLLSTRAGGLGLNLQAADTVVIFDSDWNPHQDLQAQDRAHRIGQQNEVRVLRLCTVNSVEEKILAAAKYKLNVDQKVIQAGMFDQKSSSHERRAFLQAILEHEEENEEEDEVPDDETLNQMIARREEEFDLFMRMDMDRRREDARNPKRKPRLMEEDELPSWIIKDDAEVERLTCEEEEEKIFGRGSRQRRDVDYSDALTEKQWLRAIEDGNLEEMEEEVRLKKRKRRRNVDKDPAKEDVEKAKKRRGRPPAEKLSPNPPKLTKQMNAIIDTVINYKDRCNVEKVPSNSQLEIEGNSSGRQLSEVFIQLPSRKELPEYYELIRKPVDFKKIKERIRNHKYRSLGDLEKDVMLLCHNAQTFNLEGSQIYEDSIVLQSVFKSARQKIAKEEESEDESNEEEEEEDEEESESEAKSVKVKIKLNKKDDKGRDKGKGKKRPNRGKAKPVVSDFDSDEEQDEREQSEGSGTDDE
Provide the recorded DC50 for the entries that follow.
Write the figure, then the unit, nothing else.

Q. Give reported DC50 for O=C1CC[C@H](c2ccc(N3CCC(CCN4CCC[C@@H]4C(=O)NCC4(c5ccccc5)CCN(c5cnnc(-c6ccccc6O)c5)CC4)CC3)cc2)C(=O)N1 (racemic) [Example 107] (SMARCA2 (Homo sapiens, UniProt P51531))
A. 41.3 nM

Q. Print SMARCA2 (Homo sapiens, UniProt P51531) DC50 for CCN(C(=O)C1(c2ccccc2)CCN(c2cnnc(-c3ccccc3O)c2)CC1)C1CCN(C(=O)CN2CCN(c3ccc(C4CCC(=O)NC4=O)cc3)CC2)CC1 (racemic) [Example 185] .
A. 7.13 nM

Q. Provide DC50, system SMARCA2 (Homo sapiens, UniProt P51531), entry O=C1CC[C@H](c2ccc(N3CCC(CCN4CCC(C(=O)NCC5(c6ccccc6)CCN(c6cnnc(-c7ccccc7O)c6)CC5)CC45CCOCC5)CC3)cc2)C(=O)N1 (mixture of isomers) [Example 104]
A. 7.3 nM

Q. Recall the reported DC50 of CN(C(=O)C1(c2ccccc2)CCN(c2cnnc(-c3ccccc3O)c2)CC1)C1CCN(CC2CCN(c3ccc([C@H]4CCC(=O)NC4=O)cc3)CC2)C2(CCCCC2)C1 (mixture of isomers) [Example 153] on SMARCA2 (Homo sapiens, UniProt P51531) and write it down.
A. 10.3 nM

Q. # lookup: SMARCA2 (Homo sapiens, UniProt P51531) DC50, key = CC1(NC(=O)C2(c3ccccc3)CCN(c3cnnc(-c4ccccc4O)c3)CC2)CCN(CC2CCN(c3ccc(N[C@@H]4CCC(=O)NC4=O)cn3)CC2)CC1 (racemic) [Example 99]
A. 48.1 nM

Q. Enter DC50 (test system SMARCA2 (Homo sapiens, UniProt P51531)) for O=C1CCC(Nc2ccc(C3CCN(CC4CCC45CN(C(=O)C4(c6ccccc6)CCN(c6cnnc(-c7ccccc7O)c6)CC4)C5)CC3)cc2)C(=O)N1 (racemic) [Example 177]
A. 3.53 nM

Q. Specify DC50 for O=C1CC[C@@H](c2ccc(O[C@H]3CC[C@H](CN4CC5(C4)CN(C(=O)C4(c6ccccc6)CCN(c6cnnc(-c7ccccc7O)c6)CC4)C5)CC3)cc2)C(=O)N1 (racemic) [Example 166] , system SMARCA2 (Homo sapiens, UniProt P51531).
A. 24.2 nM

Q. Give DC50 for this entry on SMARCA2 (Homo sapiens, UniProt P51531): O=C1CC[C@H](c2ccc(N3CCC(CN4CC[C@@H](NC(=O)C5(c6ccccc6)CCN(c6cnnc(-c7ccccc7O)c6)CC5)CC45CCC5)CC3)cc2)C(=O)N1 [Example 190]
A. 2.72 nM

Q. Report DC50 from SMARCA2 (Homo sapiens, UniProt P51531) testing of O=C1CC[C@H](c2ccc(N3CC[C@]4(C3)C[C@@H](N3CC5(CCN(C(=O)C6(c7ccccc7)CCN(c7cnnc(-c8ccccc8O)c7)CC6)CC5)C3)C4)cc2)C(=O)N1 (racemic) [Example 129]
A. 20.3 nM

Q. Provide DC50, system SMARCA2 (Homo sapiens, UniProt P51531), entry O=C1CC[C@H](c2ccc(N3CCC(CN4CCC5(CC4)CN(C(=O)C4(c6ccccc6)CCN(c6cnnc(-c7ccccc7O)c6)CC4)C5)CC3)cc2)C(=O)N1 [Example 194]
A. 3.24 nM

Q. Quote SMARCA2 (Homo sapiens, UniProt P51531) DC50 for entry COc1ccccc1C1(C(=O)N2CC3(C2)CN(C2COC4(CCN(c5ccc([C@H]6CCC(=O)NC6=O)cc5)CC4)C2)C3)CCN(c2cnnc(-c3ccccc3O)c2)CC1 (mixture of isomers) [Example 106] .
A. 4.91 nM

Q. Find the measured DC50 of Cn1c(=O)n(C2CCC(=O)NC2=O)c2ccc(N3CCC(CN4CCC5(CC4)CN(C(=O)C4(c6ccccc6)CCN(c6cnnc(-c7ccccc7O)c6)CC4)C5)CC3)cc21 (racemic) [Example 159] with SMARCA2 (Homo sapiens, UniProt P51531) as test system.
A. 0.38 nM

Q. Send back SMARCA2 (Homo sapiens, UniProt P51531) DC50 of Cc1cnn(C2(C(=O)N(C)C3CCN(CC4CCN(c5ccc([C@H]6CCC(=O)NC6=O)cc5)CC4)CC3)CCN(c3cnnc(-c4ccccc4O)c3)CC2)c1 [Example 154] only.
A. 2.87 nM

Q. Give measured DC50 for CC(N[C@H]1CC[C@@H](NC(=O)C2(c3ccccc3)CCN(c3cnnc(-c4ccccc4O)c3)CC2)CC1)C1CCN(c2ccc([C@H]3CCC(=O)NC3=O)cn2)CC1 (mixture of isomers) [Example 147] (SMARCA2 (Homo sapiens, UniProt P51531)).
A. 13.7 nM

Q. System SMARCA2 (Homo sapiens, UniProt P51531). Read-out DC50. Item O=C1CC[C@H](c2ccc(N3CCC(CN4CCC5(C4)CN(C(=O)C4(c6ccccc6)CCN(c6cnnc(-c7ccccc7O)c6)CC4)C5)CC3)cc2)C(=O)N1 [Example 17] . Report value.
A. 13.9 nM

Q. Please look at CC1CC2CN(CC3CCN(c4ccc([C@H]5CCC(=O)NC5=O)cc4)CC3)CC2N1C(=O)C1(c2ccccc2)CCN(c2cnnc(-c3ccccc3O)c2)CC1 (stereo partly drawn) [Example 50] and tell me its recorded DC50 on SMARCA2 (Homo sapiens, UniProt P51531).
A. 136 nM

Q. Report DC50 under test system SMARCA2 (Homo sapiens, UniProt P51531) for O=C1CC[C@H](c2ccc(N3CCC(CCN4CC5CCC(C4)C5C(=O)NCC4(c5ccccc5)CCN(c5cnnc(-c6ccccc6O)c5)CC4)CC3)cc2)C(=O)N1 (mixture of isomers) [Example 144] .
A. 1.36 nM

Q. Please report the measured DC50 for O=C1CC[C@@H](c2ccc(OCC3CCN(CC4CCN(C(=O)C5(c6ccccc6)CCN(c6cnnc(-c7ccccc7O)c6)CC5)CC4)CC3)cc2)C(=O)N1 [Example 35] tested on SMARCA2 (Homo sapiens, UniProt P51531).
A. 80.5 nM

Q. Look up SMARCA2 (Homo sapiens, UniProt P51531) data: DC50 of O=C1CCC(c2ccc(N3CCC4(CCN(CC5CCN(C(=O)C6(c7ccccc7)CCN(c7cnnc(-c8ccccc8O)c7)CC6)CC5)C4)CC3)cc2)C(=O)N1 (racemic) [Example 163] , then report it.
A. 40.8 nM

Q. Please tell me the measured DC50 for COC1(C(=O)N(C)C2CCN(CCC3CCN(c4ccc(C5CCC(=O)NC5=O)cc4)CC3)CC2)CCN(c2cnnc(-c3ccccc3O)c2)CC1 (racemic) [Example 195] ; system: SMARCA2 (Homo sapiens, UniProt P51531).
A. 13.7 nM

Q. Write down measured DC50 (SMARCA2 (Homo sapiens, UniProt P51531)) for this molecule. Cn1nccc1C1(C(=O)N2CC3(CN(CC4CCN(c5ccc(C6CCC(=O)NC6=O)cc5)CC4)C3)C2)CCN(c2cnnc(-c3ccccc3O)c2)CC1 (racemic) [Example 93]
A. 21.1 nM

====

target: SMARCA4 (Homo sapiens, UniProt P51532); construct: endogenous in cells; assay: Cellular degradation assay, SMARCA4 (Table 1); format: cell-based
Sequence (P51532 whole entry, species assumed): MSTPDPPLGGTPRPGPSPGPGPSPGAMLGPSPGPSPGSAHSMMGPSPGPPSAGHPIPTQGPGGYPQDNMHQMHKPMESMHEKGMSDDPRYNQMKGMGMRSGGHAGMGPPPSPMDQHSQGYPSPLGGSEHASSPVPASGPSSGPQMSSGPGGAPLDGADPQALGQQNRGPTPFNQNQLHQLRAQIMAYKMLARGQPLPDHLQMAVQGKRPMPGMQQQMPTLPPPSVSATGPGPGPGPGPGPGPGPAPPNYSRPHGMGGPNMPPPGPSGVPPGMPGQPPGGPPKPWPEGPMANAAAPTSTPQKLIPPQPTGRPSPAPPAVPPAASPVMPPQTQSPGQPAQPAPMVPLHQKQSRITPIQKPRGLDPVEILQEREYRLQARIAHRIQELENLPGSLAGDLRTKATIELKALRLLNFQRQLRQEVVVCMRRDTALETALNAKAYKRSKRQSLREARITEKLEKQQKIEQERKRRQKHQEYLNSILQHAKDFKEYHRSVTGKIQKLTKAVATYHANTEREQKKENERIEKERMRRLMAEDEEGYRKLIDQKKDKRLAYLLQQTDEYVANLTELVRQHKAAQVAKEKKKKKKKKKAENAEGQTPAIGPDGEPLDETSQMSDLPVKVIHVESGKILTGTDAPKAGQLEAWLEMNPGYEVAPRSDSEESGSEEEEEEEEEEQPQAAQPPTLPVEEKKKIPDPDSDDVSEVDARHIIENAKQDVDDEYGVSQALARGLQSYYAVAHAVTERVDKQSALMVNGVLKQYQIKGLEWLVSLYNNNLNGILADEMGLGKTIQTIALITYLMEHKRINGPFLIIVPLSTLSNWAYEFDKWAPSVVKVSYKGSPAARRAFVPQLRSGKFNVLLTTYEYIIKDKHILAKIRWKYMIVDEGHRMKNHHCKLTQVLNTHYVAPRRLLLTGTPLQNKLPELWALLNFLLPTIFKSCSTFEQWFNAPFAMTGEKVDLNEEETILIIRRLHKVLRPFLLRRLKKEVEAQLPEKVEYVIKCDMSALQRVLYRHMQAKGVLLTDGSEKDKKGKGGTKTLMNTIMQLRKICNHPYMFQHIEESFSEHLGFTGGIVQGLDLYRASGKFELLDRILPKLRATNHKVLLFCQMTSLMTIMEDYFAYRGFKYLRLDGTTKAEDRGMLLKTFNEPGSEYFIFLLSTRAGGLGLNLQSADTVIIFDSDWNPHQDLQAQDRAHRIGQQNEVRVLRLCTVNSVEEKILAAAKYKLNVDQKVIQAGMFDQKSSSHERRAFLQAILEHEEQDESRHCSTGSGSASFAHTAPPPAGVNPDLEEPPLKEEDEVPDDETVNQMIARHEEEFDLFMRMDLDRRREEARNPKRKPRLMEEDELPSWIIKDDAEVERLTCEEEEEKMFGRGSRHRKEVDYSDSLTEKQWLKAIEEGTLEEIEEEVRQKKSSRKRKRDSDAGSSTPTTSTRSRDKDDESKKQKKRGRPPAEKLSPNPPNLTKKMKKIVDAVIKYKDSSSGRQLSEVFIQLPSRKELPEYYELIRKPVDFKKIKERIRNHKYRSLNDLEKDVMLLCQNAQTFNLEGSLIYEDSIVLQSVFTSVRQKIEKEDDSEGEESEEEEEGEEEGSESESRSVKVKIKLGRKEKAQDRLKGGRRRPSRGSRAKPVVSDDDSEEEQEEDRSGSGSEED
Would you mind telling me the reported DC50 of each entry?
Use nM as the unit, but write only the number.

Q. Note DC50 for the compound shown: CC(N[C@H]1CC[C@@H](NC(=O)C2(c3ccccc3)CCN(c3cnnc(-c4ccccc4O)c3)CC2)CC1)C1CCN(c2ccc([C@H]3CCC(=O)NC3=O)cn2)CC1 (mixture of isomers)
A. 47.3

Q. Please supply the value of reported DC50 for the item O=C1CC[C@H](c2ccc(N3CCC(CCN4CCC(C(=O)NCC5(c6ccccc6)CCN(c6cnnc(-c7ccccc7O)c6)CC5)C5CC54)CC3)cc2)C(=O)N1 (mixture of isomers)
A. 46.5

Q. For the compound O=C1CC[C@H](c2ccc(N3CCC(CCN4CCC(OCC(F)(F)F)(C(=O)NCC5(c6ccccc6)CCN(c6cnnc(-c7ccccc7O)c6)CC5)CC4)CC3)cc2)C(=O)N1 (racemic) , give its measured DC50 value.
A. 57.5

Q. Supply measured DC50 of O=C1CC[C@H](c2ccc(N3CCC(CN4CCC(NC(=O)C5(c6ccccn6)CCN(c6cnnc(-c7ccccc7O)c6)CC5)CC45CCC5)CC3)cc2)C(=O)N1 (some centres unmarked) in your reply.
A. 62.6

Q. Quote DC50 reported for CN(C(=O)C1(OC2CCCCC2)CCN(c2cnnc(-c3ccccc3O)c2)CC1)C1CCN(C(=O)CN2CCC(c3ccc([C@@H]4CCC(=O)NC4=O)cc3)CC2)CC1 (racemic) please.
A. 153
